Target: Sialic acid-binding Ig-like lectin 9 (Homo sapiens)
Experiment: Hs-Siglec9 ALPHAscreen SOP 20170721
Set-up: scale not given: direction of the effect not stated beside the values
Settings: 10 µM
Assay Readout: Percent Effect (%)
Please give a number only; it is taken to be in %.

[ask] So what's the measured Percent Effect for this one? "CC1CCN(C(=O)CN(Cc2ccco2)C2CC2)CC1"
[reply] 0.322

[ask] Find the recorded Percent Effect belonging to "CN1CCC(NC(=O)NCc2csc(Br)c2)CC1" and report it.
[reply] 6.05

[ask] Param item = "CCN1CCN(C(=O)c2cnn(-c3ccccc3Cl)c2)CC1" ; retrieve measured Percent Effect.
[reply] 9.91

[ask] Return reported Percent Effect; argument: CC(C)(C)NC(=O)C1CSCN1S(=O)(=O)c1cccc(F)c1 (stereo unspecified)
[reply] -2.56

[ask] # get_value(readout='Percent Effect', item= "Cn1cnc2c1CCN(Cc1nc(COc3ccc(F)cc3)no1)C2" )
[reply] 1.46

[ask] Percent Effect lookup needed for COc1ccc(CN2CCCCC2CNC(=O)OC(C)(C)C)cc1F (stereo unspecified) , thanks.
[reply] 21.3

----------
Molecular target: Sialic acid-binding Ig-like lectin 9 (Homo sapiens) (UniProt Q9Y336)
Sequence (Q9Y336 whole entry): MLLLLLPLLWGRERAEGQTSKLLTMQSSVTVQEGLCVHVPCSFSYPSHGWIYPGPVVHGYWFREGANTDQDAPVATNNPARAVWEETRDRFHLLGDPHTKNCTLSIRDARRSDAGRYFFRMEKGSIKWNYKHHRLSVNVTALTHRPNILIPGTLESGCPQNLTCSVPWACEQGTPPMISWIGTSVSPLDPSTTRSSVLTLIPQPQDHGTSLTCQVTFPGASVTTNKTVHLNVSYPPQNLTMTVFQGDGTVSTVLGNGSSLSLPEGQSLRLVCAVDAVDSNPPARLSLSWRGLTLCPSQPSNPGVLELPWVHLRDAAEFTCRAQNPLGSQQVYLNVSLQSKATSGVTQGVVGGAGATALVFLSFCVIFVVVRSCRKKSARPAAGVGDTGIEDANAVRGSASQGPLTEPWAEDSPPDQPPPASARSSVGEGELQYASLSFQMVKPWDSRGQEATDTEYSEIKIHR
Experiment: Hs-Siglec9 ALPHAscreen SOP 20170721
Parameters: scale not given: direction of the effect not stated beside the values
Conditions: 10 µM
What Percent Effect was measured for each of the following?
Write the number in % without appending the unit.

[ask] Reported Percent Effect for Sialic acid-binding Ig-like lectin 9 (Homo sapiens) (UniProt Q9Y336), given Cc1nc(C)n(C2CCCN(C(=O)c3ccc(NC4CC4)nc3)C2)n1 (stereo unspecified) ?
[reply] 10.3

[ask] Query for Sialic acid-binding Ig-like lectin 9 (Homo sapiens) (UniProt Q9Y336): what Percent Effect does the record show for Cn1cc(CNC2CCCN(Cc3noc(C4CC4)n3)C2)cn1 (stereo unspecified) ?
[reply] -6.33

[ask] Form: Entry = "CN(C)CCN(C)C(=O)c1cnc2c(c1)nc(-c1ccccc1Cl)n2C" | System = Sialic acid-binding Ig-like lectin 9 (Homo sapiens) (UniProt Q9Y336) | Percent Effect = ____
[reply] -1.85

[ask] Reported Percent Effect for Sialic acid-binding Ig-like lectin 9 (Homo sapiens) (UniProt Q9Y336), given CN(Cc1ccco1)C(=O)C1CSCN1C(=O)c1cccnc1 (stereo unspecified) ?
[reply] 1.7

[ask] Form field - read-out: Percent Effect; system: Sialic acid-binding Ig-like lectin 9 (Homo sapiens) (UniProt Q9Y336); submitted item: CCc1nnc(CNCC2CCCN2c2cccnn2)o1 (stereo unspecified)
[reply] 4.6

[ask] Given the entry "CCn1cc(C(=O)NCc2csc(Br)c2)cn1" , what Percent Effect was observed with Sialic acid-binding Ig-like lectin 9 (Homo sapiens) (UniProt Q9Y336)?
[reply] 4.51

[ask] Requested read-out Percent Effect, target or system Sialic acid-binding Ig-like lectin 9 (Homo sapiens) (UniProt Q9Y336), entry COCCN1CCN(CCCS(=O)(=O)c2ccccc2)CC1C (stereo unspecified)
[reply] 0.945

[ask] State its Percent Effect on Sialic acid-binding Ig-like lectin 9 (Homo sapiens) (UniProt Q9Y336): "CCCS(=O)(=O)N1C[C@H]2OC(=O)N(CCc3cccc(Cl)c3)[C@H]2C1"
[reply] -2.36

[ask] Request - read-out Percent Effect | tested on Sialic acid-binding Ig-like lectin 9 (Homo sapiens) (UniProt Q9Y336) | molecule O=C(N1CCCCC1)N1CCN(CC(O)c2ccc(F)cc2)CC1 (stereo unspecified)
[reply] 5.2

[ask] Observed Percent Effect on Sialic acid-binding Ig-like lectin 9 (Homo sapiens) (UniProt Q9Y336) for "O=C(C1=CCCC1)N1CCO[C@H]2[C@@H](Oc3ccccn3)CC[C@@H]21" , please.
[reply] 0.0747

[ask] Observed Percent Effect on Sialic acid-binding Ig-like lectin 9 (Homo sapiens) (UniProt Q9Y336) for "Cc1nc(COC[C@]23COC[C@H]2CN(Cc2ccoc2)C3)cs1" , please.
[reply] 13.2
